These entries and their values trace back to patent US20250243286A1.

target: ActRIIA and ActRIIB (on TGFB/SMAD SBE Reporter HEK293 cells) (human); experiment: cell-based or functional assay
Sequence (chain, as listed by the source, chain 1 of 2): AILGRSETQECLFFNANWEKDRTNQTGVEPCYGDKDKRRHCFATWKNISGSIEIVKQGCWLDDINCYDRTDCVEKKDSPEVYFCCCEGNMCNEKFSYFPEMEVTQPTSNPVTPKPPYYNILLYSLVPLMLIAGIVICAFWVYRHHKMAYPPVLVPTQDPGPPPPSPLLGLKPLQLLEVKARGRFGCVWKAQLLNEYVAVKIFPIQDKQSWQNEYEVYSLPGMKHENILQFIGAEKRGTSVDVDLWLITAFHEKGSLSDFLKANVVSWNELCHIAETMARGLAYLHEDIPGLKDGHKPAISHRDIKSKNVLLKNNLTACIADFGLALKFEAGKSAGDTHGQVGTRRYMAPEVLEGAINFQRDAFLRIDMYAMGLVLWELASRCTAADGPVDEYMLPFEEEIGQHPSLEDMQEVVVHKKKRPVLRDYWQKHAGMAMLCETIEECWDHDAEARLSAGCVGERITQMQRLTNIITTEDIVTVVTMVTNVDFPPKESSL
Sequence (chain, as listed by the source, chain 2 of 2): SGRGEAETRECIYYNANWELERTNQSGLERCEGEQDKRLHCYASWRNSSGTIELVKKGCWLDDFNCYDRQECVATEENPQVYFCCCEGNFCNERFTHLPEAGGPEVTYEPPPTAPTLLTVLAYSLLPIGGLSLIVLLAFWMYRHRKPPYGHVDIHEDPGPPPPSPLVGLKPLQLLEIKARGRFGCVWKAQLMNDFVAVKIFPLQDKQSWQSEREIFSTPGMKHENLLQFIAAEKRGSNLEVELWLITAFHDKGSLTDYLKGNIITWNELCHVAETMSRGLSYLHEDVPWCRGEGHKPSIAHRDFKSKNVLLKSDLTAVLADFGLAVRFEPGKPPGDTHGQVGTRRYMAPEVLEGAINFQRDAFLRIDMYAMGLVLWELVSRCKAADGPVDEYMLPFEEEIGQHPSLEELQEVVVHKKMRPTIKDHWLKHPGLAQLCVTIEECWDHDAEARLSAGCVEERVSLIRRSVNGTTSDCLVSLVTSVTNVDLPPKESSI
Experimental endpoint: IC50, Myostatin SMAD RGA (nM)
Number only, in nM; omit the unit.

Duuranad Fab (Fab, V domains shown, Fab) VH: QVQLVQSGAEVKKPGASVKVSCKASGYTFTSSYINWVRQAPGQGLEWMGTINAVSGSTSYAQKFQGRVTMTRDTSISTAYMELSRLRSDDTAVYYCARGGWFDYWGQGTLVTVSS VL: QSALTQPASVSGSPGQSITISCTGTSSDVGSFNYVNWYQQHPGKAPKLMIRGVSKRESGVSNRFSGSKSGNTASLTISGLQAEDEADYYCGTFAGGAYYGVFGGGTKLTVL = 7.85

Lab note: next binder to report on.
-- ask # query: IC50, Myostatin SMAD RGA of entry Biiramooscht Fab (Fab, V domains shown, Fab) VH: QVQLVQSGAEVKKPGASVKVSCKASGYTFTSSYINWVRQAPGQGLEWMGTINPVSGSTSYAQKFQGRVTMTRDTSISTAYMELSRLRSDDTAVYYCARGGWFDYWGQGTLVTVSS VL: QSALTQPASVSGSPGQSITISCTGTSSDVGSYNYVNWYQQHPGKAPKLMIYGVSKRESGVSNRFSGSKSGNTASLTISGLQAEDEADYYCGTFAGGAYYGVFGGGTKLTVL
-- reply 2.09
